B1: library; numbered along this chain (parent)
chain: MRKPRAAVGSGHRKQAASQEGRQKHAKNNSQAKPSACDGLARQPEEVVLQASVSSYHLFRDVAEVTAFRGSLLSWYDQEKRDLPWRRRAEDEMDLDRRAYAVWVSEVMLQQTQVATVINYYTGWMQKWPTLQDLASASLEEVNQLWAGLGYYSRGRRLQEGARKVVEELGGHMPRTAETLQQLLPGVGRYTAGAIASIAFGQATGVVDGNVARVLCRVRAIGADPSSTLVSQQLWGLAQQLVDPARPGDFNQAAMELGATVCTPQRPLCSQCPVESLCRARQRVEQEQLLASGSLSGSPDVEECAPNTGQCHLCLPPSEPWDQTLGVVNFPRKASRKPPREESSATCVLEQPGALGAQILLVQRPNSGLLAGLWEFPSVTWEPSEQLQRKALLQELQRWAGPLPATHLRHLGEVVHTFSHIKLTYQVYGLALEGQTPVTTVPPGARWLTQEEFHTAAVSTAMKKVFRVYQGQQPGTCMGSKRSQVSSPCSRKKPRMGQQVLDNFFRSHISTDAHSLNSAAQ

- Variants of: B1
- procedure details: 8OG:A repair function score (normalized; synonymous = 0, nonsense = -1) (normalized log-likelihood score); higher = more repair activity (WT-like);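 further: cells sorted at 72 h after reporter transfection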
- experimental conditions: with 8OG:A DNA repair reporter (GFP) in HEK-293 MUTYH KO cells
Values of 8OG:A repair function score greater than or equal to -0.2 map to Fulfilled; values below map to Not fulfilled.

R42Q :: Fulfilled

I'd appreciate it if you could say whether `T122C` has 8OG:A repair function score at least equal to -0.2.
Fulfilled

Threshold query (8OG:A repair function score >= -0.2) on `V301W`
Not fulfilled

Dear colleague, could you confirm whether `R336A` has 8OG:A repair function score at or above -0.2?
Fulfilled

For this variant, is measured 8OG:A repair function score -0.2 or higher? `Y151Q`
Not fulfilled

Quick check, 8OG:A repair function score >= -0.2? `G205E`
Not fulfilled
